tested on: human DHFR versus Trypanosoma brucei DHFR; experiment: Selectivity index, ratio of IC50 for human DHFR to IC50 for Trypanosoma brucei DHFR; type: toxicity; settings: read-out: Ratio IC50
Recorded metric: selectivity ratio
Give the figure by itself; no unit, no explanation.

Item `COc1ccc(CNC(=O)c2ccc(CNCc3cnc4nc(N)nc(N)c4n3)cc2)cc1OC` has what recorded selectivity ratio? 2

Please do the same for `COC(=O)C1CCN(C(=O)c2ccc(N(CCCO)Cc3cnc4nc(N)nc(N)c4n3)cc2)CC1` as well. 35

Please do the same for `CCCOC(=O)C1CCN(C(=O)c2ccc(N(C)Cc3cnc4nc(N)nc(N)c4n3)cc2)CC1` as well. 3

Please do the same for `CCOC(=O)C1CCN(C(=O)c2ccc(N(C)Cc3cnc4nc(N)nc(N)c4n3)cc2)CC1` as well. 1

Please do the same for CCOC(=O)C1CCCN1C(=O)c1ccc(NCc2cnc3nc(N)nc(N)c3n2)cc1 (stereo unspecified) as well. 10

Please do the same for `Nc1nc(N)c2nc(CNc3ccc(C(=O)c4ccccc4)cc3)cnc2n1` as well. 6

Please do the same for `COC(=O)C1CCN(C(=O)c2cccc(NCc3cnc4nc(N)nc(N)c4n3)c2)CC1` as well. 3

Please do the same for `COC(=O)C1CCN(C(=O)c2ccc(N(Cc3ccccc3)Cc3cnc4nc(N)nc(N)c4n3)cc2)CC1` as well. 61

Please do the same for `COC(=O)C1CCN(C(=O)c2ccc(SCc3cnc4nc(N)nc(N)c4n3)nc2)CC1` as well. 37

Please do the same for `COc1cc(Oc2ccc(CNCc3cnc4nc(N)nc(N)c4n3)cc2)cc(OC)c1OC` as well. 1

Please do the same for `C#CCN(Cc1cnc2nc(N)nc(N)c2n1)c1ccc(C(=O)N2CCC(C(=O)OC)CC2)cc1` as well. 66

----------
target: Pteridine reductase, putative (Trypanosoma brucei); assay: Inhibition of recombinant Trypanosoma brucei PTR1 expressed in Escherichia coli BL21 (DE3) cells using H2B as substrate in presence of cytochrome c and NADPH by envision multilabel reader
Sequence (Q581W1 whole entry): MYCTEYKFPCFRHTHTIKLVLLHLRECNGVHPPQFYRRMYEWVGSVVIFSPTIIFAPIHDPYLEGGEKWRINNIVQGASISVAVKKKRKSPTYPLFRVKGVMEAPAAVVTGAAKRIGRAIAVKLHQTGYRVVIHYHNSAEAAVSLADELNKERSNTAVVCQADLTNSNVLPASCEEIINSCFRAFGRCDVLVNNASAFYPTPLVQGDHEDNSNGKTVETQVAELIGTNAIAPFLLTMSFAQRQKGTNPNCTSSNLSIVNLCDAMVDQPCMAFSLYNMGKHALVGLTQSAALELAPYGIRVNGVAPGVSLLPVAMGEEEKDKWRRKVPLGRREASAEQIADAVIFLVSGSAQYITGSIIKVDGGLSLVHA
# binning rule on IC50: low value: < 10 nM; medium value: ≥ 10 nM and < 200 nM; high value: ≥ 200 nM

Which class does `Nc1nc(N)c2nc(CNc3ccc(C(=O)c4ccccc4)cc3)cnc2n1` fall in? low value

Please do the same for `COc1cc(Oc2ccc(CNCc3cnc4nc(N)nc(N)c4n3)cc2)cc(OC)c1OC` as well. high value

Please do the same for `COC(=O)C1CCN(C(=O)c2ccc(N(Cc3ccccc3)Cc3cnc4nc(N)nc(N)c4n3)cc2)CC1` as well. low value

Please do the same for `CCN(Cc1cnc2nc(N)nc(N)c2n1)c1ccc(C(=O)N2CCC(C(=O)OC)CC2)cc1` as well. medium value

Please do the same for `CCCOC(=O)C1CCN(C(=O)c2ccc(N(C)Cc3cnc4nc(N)nc(N)c4n3)cc2)CC1` as well. medium value

Please do the same for `Nc1nc(N)c2nc(CNc3ccc(C(=O)N4CCC(C(=O)O)CC4)cc3)cnc2n1` as well. high value

Please do the same for `CCOC(=O)C1CCN(C(=O)c2ccc(N(C)Cc3cnc4nc(N)nc(N)c4n3)cc2)CC1` as well. medium value

Please do the same for `COC(=O)C1CCN(C(=O)Cc2ccc(NCc3cnc4nc(N)nc(N)c4n3)cc2)CC1` as well. medium value

Please do the same for `CCOC(=O)C1CCN(C(=O)c2ccc(N(CC)Cc3cnc4nc(N)nc(N)c4n3)cc2)CC1` as well. low value

Please do the same for `COc1ccc(CNC(=O)c2ccc(CNCc3cnc4nc(N)nc(N)c4n3)cc2)cc1OC` as well. high value

Please do the same for `COc1ccc(CNC(=O)c2ccc(CNCc3cnc4nc(N)nc(N)c4n3)cc2)cc1` as well. medium value

Please do the same for `Nc1nc(N)c2nc(CNCc3ccc(Oc4ccccc4)cc3)cnc2n1` as well. medium value

Please do the same for `COC(=O)C1CCN(C(=O)c2ccc(NCc3cnc4nc(N)nc(N)c4n3)cn2)CC1` as well. high value

Please do the same for NC(=O)C1CCCN1C(=O)Cc1ccc(N(CCCO)Cc2cnc3nc(N)nc(N)c3n2)cc1 (stereo not given) as well. low value

Please do the same for `Nc1nc(N)c2nc(CNc3ccc(C(=O)NCCc4ccccc4)cc3)cnc2n1` as well. low value

Please do the same for `COc1ccc(Oc2ccc(CNCc3cnc4nc(N)nc(N)c4n3)cc2)cc1` as well. high value

Please do the same for `COc1ccc(Oc2ccc(CN(Cc3ccccc3)Cc3cnc4nc(N)nc(N)c4n3)cc2)cc1` as well. high value

Please do the same for `COC(=O)C1CCN(C(=O)c2ccc(SCc3cnc4nc(N)nc(N)c4n3)nc2)CC1` as well. low value

----------
Please provide measured IC50 for the entries that follow.
target: Bifunctional dihydrofolate reductase-thymidylate synthase (Leishmania major); experiment: Inhibition of recombinant Leishmania major DHFR-TS expressed in Escherichia coli BL21 (DE3) cells using dihydrofolate as substrate in presence of NADPH by spectrophotometric analysis
Sequence (P07382 whole entry): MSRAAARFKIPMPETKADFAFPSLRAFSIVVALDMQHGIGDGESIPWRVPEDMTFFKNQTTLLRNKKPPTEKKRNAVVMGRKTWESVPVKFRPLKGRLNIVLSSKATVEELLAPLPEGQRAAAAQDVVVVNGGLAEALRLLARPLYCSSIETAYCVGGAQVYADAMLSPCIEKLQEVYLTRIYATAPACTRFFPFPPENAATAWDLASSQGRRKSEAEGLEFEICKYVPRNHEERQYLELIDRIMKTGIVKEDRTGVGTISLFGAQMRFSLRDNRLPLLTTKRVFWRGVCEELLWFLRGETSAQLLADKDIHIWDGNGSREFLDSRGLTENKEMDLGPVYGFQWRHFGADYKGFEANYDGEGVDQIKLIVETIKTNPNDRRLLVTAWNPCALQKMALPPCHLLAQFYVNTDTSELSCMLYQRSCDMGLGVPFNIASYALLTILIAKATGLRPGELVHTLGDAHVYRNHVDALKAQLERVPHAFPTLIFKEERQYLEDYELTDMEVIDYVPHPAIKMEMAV
Hi! Could you send only the number? It should be in nM, unit omitted.

Item `CCOC(=O)C1CCN(C(=O)c2ccc(N(CC)Cc3cnc4nc(N)nc(N)c4n3)cc2)CC1` has what recorded IC50? 180

Please do the same for `CCN(Cc1cnc2nc(N)nc(N)c2n1)c1ccc(C(=O)N2CCC(C(=O)OC)CC2)cc1` as well. 460

Please do the same for `COC(=O)C1CCN(C(=O)c2ccc(N(Cc3ccccc3)Cc3cnc4nc(N)nc(N)c4n3)cc2)CC1` as well. 910

Please do the same for `NC(=O)C1CCN(C(=O)Cc2ccc(N(CCCO)Cc3cnc4nc(N)nc(N)c4n3)cc2)CC1` as well. 1140

Please do the same for `Nc1nc(N)c2nc(CNc3ccc(C(=O)N4CCC(C(=O)O)CC4)cc3)cnc2n1` as well. 600

Please do the same for `COC(=O)C1CCN(C(=O)Cc2ccc(NCc3cnc4nc(N)nc(N)c4n3)cc2)CC1` as well. 850

Please do the same for `COC(=O)C1CCN(C(=O)c2ccc(NCc3cnc4nc(N)nc(N)c4n3)cc2)CC1` as well. 620

Please do the same for NC(=O)C1CCCN1C(=O)Cc1ccc(N(CCCO)Cc2cnc3nc(N)nc(N)c3n2)cc1 (centres undefined) as well. 890

Please do the same for `CCOC(=O)C1CCN(C(=O)c2ccc(N(C)Cc3cnc4nc(N)nc(N)c4n3)cc2)CC1` as well. 130

Please do the same for `Nc1nc(N)c2nc(CNc3cccc4ccccc34)cnc2n1` as well. 1510

Please do the same for `C#CCN(Cc1cnc2nc(N)nc(N)c2n1)c1ccc(C(=O)N2CCC(C(=O)OC)CC2)cc1` as well. 710

Please do the same for CCOC(=O)C1CCCN1C(=O)c1ccc(NCc2cnc3nc(N)nc(N)c3n2)cc1 (centres undefined) as well. 1210

Please do the same for `CCN(Cc1cnc2nc(N)nc(N)c2n1)c1ccc(C(=O)c2ccccc2)cc1` as well. 230

Please do the same for `COC(=O)C1CCN(C(=O)c2ccc(N(CCO)Cc3cnc4nc(N)nc(N)c4n3)cc2)CC1` as well. 1210

Please do the same for `COC(=O)C1CCN(C(=O)c2ccc(NCc3cnc4nc(N)nc(N)c4n3)cn2)CC1` as well. 1360

Please do the same for `COC(=O)C1CCN(C(=O)c2ccc(N(C)Cc3cnc4nc(N)nc(N)c4n3)cc2)CC1` as well. 260

Please do the same for `CN(Cc1cnc2nc(N)nc(N)c2n1)c1ccc(C(=O)N2CCCCC2)cc1` as well. 2050

Please do the same for `CCCOC(=O)C1CCN(C(=O)c2ccc(N(C)Cc3cnc4nc(N)nc(N)c4n3)cc2)CC1` as well. 150

Please do the same for `NC(=O)C1CCN(C(=O)c2ccc(NCc3cnc4nc(N)nc(N)c4n3)cc2)CC1` as well. 1110

----------
molecular target: Pteridine reductase 1 (Leishmania major, UniProt Q01782); assay: Inhibition of recombinant Leishmania major PTR1 expressed in Escherichia coli BL21 (DE3) cells using H2B as substrate in presence of cytochrome c and NADPH by envision multilabel reader
Sequence (Q01782 whole entry): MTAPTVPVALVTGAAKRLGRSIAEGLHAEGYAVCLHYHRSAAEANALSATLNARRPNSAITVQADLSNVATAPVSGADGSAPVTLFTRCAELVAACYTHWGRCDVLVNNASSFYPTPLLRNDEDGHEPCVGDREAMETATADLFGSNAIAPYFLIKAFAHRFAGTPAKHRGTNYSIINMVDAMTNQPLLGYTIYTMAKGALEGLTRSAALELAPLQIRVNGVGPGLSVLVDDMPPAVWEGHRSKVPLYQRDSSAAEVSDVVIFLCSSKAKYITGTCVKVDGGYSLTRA
Recorded metric: IC50 (nM)
Hi! Could you send only the number? It should be in nM, unit omitted.

Item `COc1ccc(CNC(=O)c2ccc(CNCc3cnc4nc(N)nc(N)c4n3)cc2)cc1` has what recorded IC50? 1480

Please do the same for `COC(=O)C1CCN(C(=O)c2ccc(N(CCCO)Cc3cnc4nc(N)nc(N)c4n3)cc2)CC1` as well. 220

Please do the same for `COC(=O)C1CCN(C(=O)c2cccc(NCc3cnc4nc(N)nc(N)c4n3)c2)CC1` as well. 1690

Please do the same for `COC(=O)C1CCN(C(=O)c2ccc(SCc3cnc4nc(N)nc(N)c4n3)nc2)CC1` as well. 60

Please do the same for `Nc1nc(N)c2nc(CNCc3ccc(Oc4ccccc4)cc3)cnc2n1` as well. 980

Please do the same for `Nc1nc(N)c2nc(CNc3ccc(C(=O)c4ccccc4)cc3)cnc2n1` as well. 30

Please do the same for `CCCOC(=O)C1CCN(C(=O)c2ccc(N(C)Cc3cnc4nc(N)nc(N)c4n3)cc2)CC1` as well. 410

Please do the same for `CCOC(=O)C1CCN(C(=O)c2ccc(N(C)Cc3cnc4nc(N)nc(N)c4n3)cc2)CC1` as well. 450

Please do the same for `COc1ccc(Oc2ccc(CNCc3cnc4nc(N)nc(N)c4n3)cc2)cc1` as well. 260

Please do the same for `COc1ccc(Oc2ccc(CN(Cc3ccccc3)Cc3cnc4nc(N)nc(N)c4n3)cc2)cc1` as well. 150

Please do the same for `CN(Cc1cnc2nc(N)nc(N)c2n1)c1ccc(C(=O)N2CCCCC2)cc1` as well. 140

Please do the same for `COC(=O)C1CCN(C(=O)c2ccc(N(Cc3ccccc3)Cc3cnc4nc(N)nc(N)c4n3)cc2)CC1` as well. 20

Please do the same for `Nc1nc(N)c2nc(C(=O)NCc3cccc(C(F)(F)F)c3)cnc2n1` as well. 330

Please do the same for NC(=O)C1CCCN1C(=O)Cc1ccc(N(CCCO)Cc2cnc3nc(N)nc(N)c3n2)cc1 (stereo not given) as well. 170

Please do the same for `Nc1nc(N)c2nc(CNc3cccc4ccccc34)cnc2n1` as well. 10

Please do the same for `CCN(Cc1cnc2nc(N)nc(N)c2n1)c1ccc(C(=O)c2ccccc2)cc1` as well. 50

Please do the same for `NC(=O)C1CCN(C(=O)Cc2ccc(N(CCCO)Cc3cnc4nc(N)nc(N)c4n3)cc2)CC1` as well. 170

Please do the same for `COc1ccc(Oc2ccc(CN(C)Cc3cnc4nc(N)nc(N)c4n3)cc2)cc1` as well. 450

Please do the same for `COc1ccc(CNC(=O)c2ccc(CNCc3cnc4nc(N)nc(N)c4n3)cc2)cc1OC` as well. 1570

Please do the same for `Nc1nc(N)c2nc(CNc3ccc(C(=O)NCCc4ccccc4)cc3)cnc2n1` as well. 30
